Target: human CB1 receptor (Homo sapiens, UniProt P21554)
Construct: expressed in transfected cells; host or cells: HEK-293
Sequence (P21554 whole entry): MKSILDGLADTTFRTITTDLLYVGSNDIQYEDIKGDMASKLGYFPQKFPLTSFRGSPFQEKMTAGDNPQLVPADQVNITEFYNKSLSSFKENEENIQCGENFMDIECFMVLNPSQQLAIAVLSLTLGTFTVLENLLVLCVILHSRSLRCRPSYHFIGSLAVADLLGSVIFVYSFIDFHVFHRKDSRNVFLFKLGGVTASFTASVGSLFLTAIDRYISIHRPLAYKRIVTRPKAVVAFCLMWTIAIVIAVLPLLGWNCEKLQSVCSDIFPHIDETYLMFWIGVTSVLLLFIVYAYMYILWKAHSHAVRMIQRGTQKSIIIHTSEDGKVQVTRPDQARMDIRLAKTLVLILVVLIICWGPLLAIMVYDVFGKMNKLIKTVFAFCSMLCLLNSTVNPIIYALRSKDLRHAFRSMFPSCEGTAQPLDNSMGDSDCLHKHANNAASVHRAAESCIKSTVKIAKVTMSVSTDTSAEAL
Test: Radioligand displacement in human CB1 receptor-transfected cells (HEK-293)
Format: binding
Conditions: human CB1 transfected cells; 3H-WIN55212-2; Table 5, parallel synthesis analogs
MEASUREMENT LABEL: Max. Disp. %, 3H-WIN55212-2 (%)

MOLECULE	Max. Disp. %, 3H-WIN55212-2, %
COCC(C)NC(=O)c1nn(-c2ccc(Cl)cc2Cl)c(-c2ccc(Cl)cc2)c1C (stereo not shown) [AM-17]	96.8
Cc1c(C(=O)NCCc2ccc(O)cc2)nn(-c2ccc(Cl)cc2Cl)c1-c1ccc(Cl)cc1 [AM-52]	100
COc1ccc(CCNC(=O)c2nn(-c3ccc(Cl)cc3Cl)c(-c3ccc(Cl)cc3)c2C)cc1 [AM-29]	100
Cc1c(C(=O)NCCC(c2ccccc2)c2ccccc2)nn(-c2ccc(Cl)cc2Cl)c1-c1ccc(Cl)cc1 [AKS-10262-9]	77.3

----------
Molecular target: human CB1 receptor (Homo sapiens)
Construct: expressed in transfected cells; host or cells: HEK-293
Assay: Radioligand displacement in human CB1 receptor-transfected cells (HEK-293)
Type: binding
Conditions: human CB1 transfected cells; radioligand 3H-SR141716A; Table 3
MEASUREMENT LABEL: Max. Disp. %, 3H-SR141716A (%)

COMPOUND	ENDPOINT UNIT	REPORTED VALUE
CCCCNC(=O)c1nn(-c2ccc(Cl)cc2Cl)c(-c2ccc(Cl)cc2)c1C	%	97.4
CCNC(=O)c1nn(-c2ccc(Cl)cc2Cl)c(-c2ccc(Cl)cc2)c1C [MF9725-54C]	%	95.3
CCCCCCNC(=O)c1nn(-c2ccc(Cl)cc2Cl)c(-c2ccc(Cl)cc2)c1C	%	75.4
Cc1c(C(=O)NCC(C)C)nn(-c2ccc(Cl)cc2Cl)c1-c1ccc(Cl)cc1	%	99.5
CCCNC(=O)c1nn(-c2ccc(Cl)cc2Cl)c(-c2ccc(Cl)cc2)c1C [MF9725-55C]	%	93.4
Cc1c(C(=O)NC(C)C)nn(-c2ccc(Cl)cc2Cl)c1-c1ccc(Cl)cc1	%	100
Cc1c(C(=O)NC2CCCCC2)nn(-c2ccc(Cl)cc2Cl)c1-c1ccc(Cl)cc1	%	99.9

----------
Molecular target: human CB1 receptor (Homo sapiens)
Construct: expressed in transfected cells; host or cells: HEK-293
Experiment: Radioligand displacement in human CB1 receptor-transfected cells (HEK-293)
Type: binding
Details: human CB1 transfected cells; 3H-CP55940; Table 5, parallel synthesis analogs
MEASUREMENT LABEL: Max. Disp. %, 3H-CP55940 (%)

Field: example entries. Status: answers known.
MOLECULE	REPORTED VALUE
Cc1c(C(=O)N2CCC(O)(c3ccccc3)CC2)nn(-c2ccc(Cl)cc2Cl)c1-c1ccc(Cl)cc1 [AM-28]	79.6
CCCCCCCCCCCCCNC(=O)c1nn(-c2ccc(Cl)cc2Cl)c(-c2ccc(Cl)cc2)c1C [BT-6]	75.9
Cc1c(C(=O)N2CCc3ccccc3C2)nn(-c2ccc(Cl)cc2Cl)c1-c1ccc(Cl)cc1 [AM-50]	66.3
Cc1c(C(=O)NC(C)Cc2ccc(Cl)cc2)nn(-c2ccc(Cl)cc2Cl)c1-c1ccc(Cl)cc1 (stereo not shown) [AKS-10262-10]	94.8
CCCCCCCCCCCCNC(=O)c1nn(-c2ccc(Cl)cc2Cl)c(-c2ccc(Cl)cc2)c1C [BT-2]	79.5

(A) Cc1c(C(=O)NCCc2ccc(O)cc2)nn(-c2ccc(Cl)cc2Cl)c1-c1ccc(Cl)cc1 [AM-52]
(B) COc1ccc(NC(=O)c2nn(-c3ccc(Cl)cc3Cl)c(-c3ccc(Cl)cc3)c2C)cc1 [AN-2]
(Q) Choose between A and B : whose measured Max. Disp. %, 3H-CP55940 value is numerically larger? Return value: the label identifying the chosen record.
(A) A

----------
Target: human CB1 receptor (Homo sapiens)
Construct: expressed in transfected cells; host or cells: HEK-293
Assay: Radioligand displacement in human CB1 receptor-transfected cells (HEK-293)
Format: binding
Details: Ki, displacement of 3H-WIN55212-2, human CB1 transfected cells; 3H-WIN55212-2; Table 5, parallel synthesis analogs, concentration assumes 100% yield
pKi: −log10 of the molar value.
MEASUREMENT LABEL: pKi

COMPOUND	REPORTED VALUE
Cc1c(C(=O)N2CCc3ccccc3C2)nn(-c2ccc(Cl)cc2Cl)c1-c1ccc(Cl)cc1	6.78
COc1ccc(CCNC(=O)c2nn(-c3ccc(Cl)cc3Cl)c(-c3ccc(Cl)cc3)c2C)cc1	7.13
CCC(C)CC(C)NC(=O)c1nn(-c2ccc(Cl)cc2Cl)c(-c2ccc(Cl)cc2)c1C (stereo not drawn)	7.62
CCCCCC(CC)NC(=O)c1nn(-c2ccc(Cl)cc2Cl)c(-c2ccc(Cl)cc2)c1C (stereo not drawn)	7.10

(I) Cc1c(C(=O)NC(C)Cc2ccc(Cl)cc2)nn(-c2ccc(Cl)cc2Cl)c1-c1ccc(Cl)cc1 (stereo not drawn)
(II) COc1ccc(NC(=O)c2nn(-c3ccc(Cl)cc3Cl)c(-c3ccc(Cl)cc3)c2C)cc1
(III) CC(C)=CCC/C(C)=C/CNC(=O)c1nn(-c2ccc(Cl)cc2Cl)c(-c2ccc(Cl)cc2)c1C
(IV) CCCCCCCCCCCNC(=O)c1nn(-c2ccc(Cl)cc2Cl)c(-c2ccc(Cl)cc2)c1C
(Q) Which order do these items take when sorted by rising pKi? List them. Show the ranking through the labels, in the order asked for.
(A) III, II, I, IV

(I) CCCCCCCCCCCCNC(=O)c1nn(-c2ccc(Cl)cc2Cl)c(-c2ccc(Cl)cc2)c1C
(II) Cc1c(C(=O)NCCc2ccc(O)cc2)nn(-c2ccc(Cl)cc2Cl)c1-c1ccc(Cl)cc1
(III) COCC(C)NC(=O)c1nn(-c2ccc(Cl)cc2Cl)c(-c2ccc(Cl)cc2)c1C (stereo not drawn)
(Q) Arrange by pKi, high to low. Show the ranking through the labels, in the order asked for.
(A) I, III, II
(I: 7.86, III: 7.51, II: 6.79)

----------
Target: human CB2 receptor (Homo sapiens, UniProt P34972)
Construct: expressed in transfected cells; host or cells: CHO-K1
Sequence (P34972 whole entry): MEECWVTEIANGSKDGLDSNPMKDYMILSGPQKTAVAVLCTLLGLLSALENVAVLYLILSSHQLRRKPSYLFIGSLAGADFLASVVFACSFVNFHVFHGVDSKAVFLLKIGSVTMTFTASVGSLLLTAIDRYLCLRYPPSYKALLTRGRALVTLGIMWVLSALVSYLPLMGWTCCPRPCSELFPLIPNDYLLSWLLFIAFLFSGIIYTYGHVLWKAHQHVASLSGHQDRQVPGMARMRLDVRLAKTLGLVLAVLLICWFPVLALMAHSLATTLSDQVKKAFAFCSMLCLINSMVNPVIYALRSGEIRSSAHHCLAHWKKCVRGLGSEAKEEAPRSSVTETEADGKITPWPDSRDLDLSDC
Assay: Displacement of 3H-CP55,940 in human CB2 receptor-transfected cells (CHO-K1)
Assay type: binding
Conditions: human CB2 transfected cells; radioligand 3H-CP55940; Tables 6 and 7
Protocol: Human CB2 receptor affinity. The relative selectivity of the analogs for CB1 versus CB2 receptors varied modestly regardless of the structural modifications examined to date. Methods—binding assay in transfected cell lines. The methods used for performing binding assays in transfected cells expressing human CB1 or CB2 receptors are those used above. […] Data analysis. Saturation and displacement data were analyzed by unweighted nonlinear regression of receptor binding data. […]
MEASUREMENT LABEL: Max. Disp. %, 3H-CP55940 (%)

MOLECULE	TESTED TARGET	ENDPOINT UNIT	Max. Disp. %, 3H-CP55940
Cc1c(C(=O)NC(C)C)nn(-c2ccc(Cl)cc2Cl)c1-c1ccc(Cl)cc1	human CB2 receptor (Homo sapiens, UniProt P34972)	%	68.3
Cc1c(C(=O)NC(C)CO)nn(-c2ccc(Cl)cc2Cl)c1-c1ccc(Cl)cc1 (single isomer, unassigned) [MF9725-106-39]	human CB2 receptor (Homo sapiens, UniProt P34972)	%	52.1
CCCCCCCNC(=O)c1nn(-c2ccc(Cl)cc2Cl)c(-c2ccc(Cl)cc2)c1C	human CB2 receptor (Homo sapiens, UniProt P34972)	%	47.8

(A) Cc1c(C(=O)NCCCCO)nn(-c2ccc(Cl)cc2Cl)c1-c1ccc(Cl)cc1
(B) Cc1c(C(=O)O)nn(-c2ccc(Cl)cc2Cl)c1-c1ccc(Cl)cc1
(Q) Which of these two has the smaller recorded Max. Disp. %, 3H-CP55940: A or B ? Return value: the label identifying the chosen record.
(A) B
(B: 0.0%, A: 54.3%)

----------
List of Max. Disp. %, 3H-SR141716A values.
Target: human CB1 receptor (Homo sapiens, UniProt P21554)
Construct: expressed in transfected cells; host or cells: HEK-293
Assay: Radioligand displacement in human CB1 receptor-transfected cells (HEK-293)
Format: binding
Give the value, in units of %, as a plain number.

Field: example entries. Status: answers known.
COMPOUND	ENDPOINT UNIT	Max. Disp. %, 3H-SR141716A
CCCCCC(C)NC(=O)c1nn(-c2ccc(Cl)cc2Cl)c(-c2ccc(Cl)cc2)c1C (stereo not drawn) [AKS-10262-1]	%	95.6
CCCCCCC(C)(C)NC(=O)c1nn(-c2ccc(Cl)cc2Cl)c(-c2ccc(Cl)cc2)c1C [MF10110-119-11]	%	99.9
CCCCCNC(=O)c1nn(-c2ccc(Cl)cc2Cl)c(-c2ccc(Cl)cc2)c1C [MF9725-67-17]	%	89.9
CCCCCCCCCNC(=O)c1nn(-c2ccc(Cl)cc2Cl)c(-c2ccc(Cl)cc2)c1C [MF10110-10-21]	%	86.9

(Q) human CB1 receptor (Homo sapiens, UniProt P21554) / Max. Disp. %, 3H-SR141716A / CCCCCCCCNC(=O)c1nn(-c2ccc(Cl)cc2Cl)c(-c2ccc(Cl)cc2)c1C [MF9879-164-28] : value?
(A) 67.8

Each recorded value in this set is attributed to patent US6825209B2.
